System: DLD1
Test: TCF/Wnt firefly luciferase reporter signal relative to plate median (fraction of plate median); higher = higher Wnt reporter signal
Conditions: 5 µM; treatment time 24 h; reporter: 7TFP
OBSERVATION_TYPE: TCF/Wnt firefly luciferase reporter signal
No unit in the answer, please; the number alone is enough.

CCCCCCCCCCCCCCCCOP(=O)([O-])OCC[N+](C)(C)C    1.07

Inquiry: Fill in the recorded TCF/Wnt firefly luciferase reporter signal for this molecule, with DLD1 as test system: COC(=O)/C(=C1/OC(=O)C(c2ccccc2)=C1O)c1ccccc1
Reply text: 1.05

Inquiry: Fill in the recorded TCF/Wnt firefly luciferase reporter signal for this molecule, with DLD1 as test system: O=C(O)c1ccc(S(=O)(=O)N(Cl)Cl)cc1
Reply text: 0.937

Inquiry: Fill in the recorded TCF/Wnt firefly luciferase reporter signal for this molecule, with DLD1 as test system: CC1(C)O[C@H]2CC(=O)OC[C@]23[C@H]2CC[C@@]4(C)[C@H](c5ccoc5)OC(=O)[C@H]5O[C@]54[C@]2(C)C(=O)C[C@@H]13
Reply text: 0.944

Inquiry: Fill in the recorded TCF/Wnt firefly luciferase reporter signal for this molecule, with DLD1 as test system: COc1cc2nc(N3CCN(C(=O)C4CCCO4)CC3)nc(N)c2cc1OC (configuration not stated)
Reply text: 1.14

Inquiry: Fill in the recorded TCF/Wnt firefly luciferase reporter signal for this molecule, with DLD1 as test system: O=C1c2cccc(O)c2C(=O)c2c(O)cccc21
Reply text: 0.958

Inquiry: Fill in the recorded TCF/Wnt firefly luciferase reporter signal for this molecule, with DLD1 as test system: CC(C)=CCc1c2c(c3occ(-c4ccc(O)c(O)c4)c(=O)c3c1O)C=CC(C)(C)O2
Reply text: 0.996

----------
Tested on: SW480
Assay: TCF/Wnt firefly luciferase reporter signal relative to plate median (fraction of plate median); higher = higher Wnt reporter signal
Settings: 5 µM; treatment time 24 h; reporter: 7TFP
# TCF/Wnt firefly luciferase reporter signal listing for each entry below

Consider the worked cases shown below.
O=c1n(CCCN2CCN(c3cccc(Cl)c3)CC2)nc2ccccn12    0.971
COC1(C)CCC2OC2(C)CCC2C1CC2(C)C (stereo unspecified)    1.02
NC[C@@H]1O[C@@H](O[C@H]2[C@H](O)[C@@H](O[C@H]3O[C@H](CO)[C@@H](O)[C@H](N)[C@H]3O)[C@H](N)C[C@@H]2N)[C@@H](O)[C@H](O)[C@H]1O    0.988
CN(C)/N=N/c1[nH]cnc1C(N)=O    1.06
CC(C)(C)NC[C@H](O)COc1cccc2c1CCCC2=O    0.981
CCN(CC)CCOC(=O)C(Cc1cccc2ccccc12)CC1CCCO1 (stereo unspecified)    1.22
NCCS    1.16
CCCCC[C@H](CC(=O)NO)C(=O)N[C@H](C(=O)N1CCC[C@H]1CO)C(C)C    1.16
CC[C@H]1OC(=O)[C@H](C)[C@@H](O[C@H]2C[C@@](C)(OC)[C@@H](O)[C@H](C)O2)[C@H](C)[C@@H](O[C@@H]2O[C@H](C)C[C@H](N(C)C)[C@H]2O)[C@](C)(OC)C[C@@H](C)C(=O)[C@H](C)[C@@H](O)[C@]1(C)O    1.12
COc1ccc2cc1Oc1ccc(cc1)C[C@H]1c3cc(c(OC)cc3CCN1C)Oc1c(OC)c(OC)cc3c1[C@H](C2)N(C)CC3    0.889

Inquiry: Returns the measured TCF/Wnt firefly luciferase reporter signal for the input molecule. Input: CCCCCCCCCCCCCc1ccco1
Reply text: 0.987

Inquiry: Returns the measured TCF/Wnt firefly luciferase reporter signal for the input molecule. Input: C[C@H]1[C@H](C)CC[C@]2(C(=O)O)CC[C@]3(C)C(=CC[C@@H]4[C@@]5(C)C[C@@H](O)[C@H](O)[C@@](C)(CO)[C@@H]5CC[C@]43C)[C@H]12
Reply text: 1.05

Inquiry: Returns the measured TCF/Wnt firefly luciferase reporter signal for the input molecule. Input: COc1cc(C(=O)NCCCCCC(=O)O)cc(OC)c1OC
Reply text: 0.902

Inquiry: Returns the measured TCF/Wnt firefly luciferase reporter signal for the input molecule. Input: C/C=C/c1ccc(OC)cc1
Reply text: 0.943

Inquiry: Returns the measured TCF/Wnt firefly luciferase reporter signal for the input molecule. Input: COc1ccc(-c2coc3cc(O)ccc3c2=O)c(OC)c1
Reply text: 1.01

Inquiry: Returns the measured TCF/Wnt firefly luciferase reporter signal for the input molecule. Input: CC(=O)N[C@@H](C=O)[C@@H](O)[C@H](O)[C@H](O)CO
Reply text: 1.2

Inquiry: Returns the measured TCF/Wnt firefly luciferase reporter signal for the input molecule. Input: COc1cccc2c1C(=O)c1c(O)c3c(c(O)c1C2=O)C[C@@](O)(C(=O)CO)C[C@@H]3O[C@H]1C[C@H](N)[C@H](O)[C@H](C)O1
Reply text: 0.682

Inquiry: Returns the measured TCF/Wnt firefly luciferase reporter signal for the input molecule. Input: CCN(CC)CCOc1ccc(C(=C(Cl)c2ccccc2)c2ccccc2)cc1
Reply text: 1.01

Inquiry: Returns the measured TCF/Wnt firefly luciferase reporter signal for the input molecule. Input: CC(C)c1c(C(=O)Nc2ccccc2)c(-c2ccccc2)c(-c2ccc(F)cc2)n1CC[C@@H](O)C[C@@H](O)CC(=O)O
Reply text: 0.909

Inquiry: Returns the measured TCF/Wnt firefly luciferase reporter signal for the input molecule. Input: CCN(CC)C(=O)c1cccc(C)c1
Reply text: 0.923

Inquiry: Returns the measured TCF/Wnt firefly luciferase reporter signal for the input molecule. Input: COc1ccc(-c2cc(=O)c3c(OC(C)=O)cc(OC(C)=O)cc3o2)cc1
Reply text: 1.21

Inquiry: Returns the measured TCF/Wnt firefly luciferase reporter signal for the input molecule. Input: Cc1ccsc1/C=C/C1=NCCCN1C
Reply text: 1

Inquiry: Returns the measured TCF/Wnt firefly luciferase reporter signal for the input molecule. Input: NCCCCNCCCN
Reply text: 1.12

Inquiry: Returns the measured TCF/Wnt firefly luciferase reporter signal for the input molecule. Input: COC(=O)CC1C(C)(C)C(OC(C)=O)[C@@H]2[C@@H](OC(C)=O)[C@]34O[C@@]2(O)[C@]1(C)C3CC[C@]1(C)C4=CC(=O)O[C@H]1c1ccoc1 (stereo partly specified)
Reply text: 0.992

Inquiry: Returns the measured TCF/Wnt firefly luciferase reporter signal for the input molecule. Input: CC(NCCc1ccc(O)cc1)C(O)c1ccc(O)cc1 (stereo unspecified)
Reply text: 0.913

Inquiry: Returns the measured TCF/Wnt firefly luciferase reporter signal for the input molecule. Input: CCCN(CCC)CCc1cccc2c1CC(=O)N2
Reply text: 1.07

----------
Test system: SW480
Test: TCF/Wnt firefly luciferase reporter signal relative to plate median (fraction of plate median); higher = higher Wnt reporter signal
Conditions: 5 µM; treatment time 24 h; reporter: 7TFP
OBSERVATION_TYPE: TCF/Wnt firefly luciferase reporter signal
No unit in the answer, please; the number alone is enough.

Inquiry: Returns the measured TCF/Wnt firefly luciferase reporter signal for the input compound. Input: NCCS(=O)(=O)O
Reply text: 1

Inquiry: Returns the measured TCF/Wnt firefly luciferase reporter signal for the input compound. Input: CC(=O)OCC(=O)[C@@]1(O)CC[C@H]2[C@@H]3CCC4=CC(=O)CC[C@]4(C)[C@H]3C(=O)C[C@@]21C
Reply text: 1.04

Inquiry: Returns the measured TCF/Wnt firefly luciferase reporter signal for the input compound. Input: O=C1CN(/N=C/c2ccc([N+](=O)[O-])o2)C(=O)N1
Reply text: 0.995

Inquiry: Returns the measured TCF/Wnt firefly luciferase reporter signal for the input compound. Input: COc1ccc2c(c1)OCc1c-2oc2cc(OC)ccc12
Reply text: 1.03

Inquiry: Returns the measured TCF/Wnt firefly luciferase reporter signal for the input compound. Input: O=c1cc(CO)occ1O [Kojic acid (Biofocus)]
Reply text: 1.12

Inquiry: Returns the measured TCF/Wnt firefly luciferase reporter signal for the input compound. Input: NNc1nncc2ccccc12
Reply text: 1.28

Inquiry: Returns the measured TCF/Wnt firefly luciferase reporter signal for the input compound. Input: CC(=O)O[C@@H]1CC2C(C)(CC[C@H](O)C2(C)C)C2CC[C@]3(C)C(=CC(=O)O[C@H]3c3ccoc3)C21C (stereo partly drawn) [3beta-HYDROXYDEOXODIHYDRODEOXYGEDUNIN]
Reply text: 1.12

Inquiry: Returns the measured TCF/Wnt firefly luciferase reporter signal for the input compound. Input: COc1cc2c(cc1OC)C(=O)OC2
Reply text: 1.06

----------
Tested on: SW480
Assay: cell viability (CellTiter-Glo) relative to plate median (fraction of plate median); higher = more viable cells
Conditions: 5 µM; treatment time 24 h; reporter: 7TFP
# cell viability listing for each entry below
No unit in the answer, please; the number alone is enough.

Consider the worked cases shown below.
COC(=O)c1cc(O)c(=O)c2c(O)c(O)ccc2c1    0.997
CC(C)NCC(O)c1ccc2ccccc2c1 (configuration not stated)    0.977
COC1=C[C@@H](C)[C@@H]2C[C@H]3OC(=O)C[C@H]4C(C)=C(OC)C(=O)[C@H]([C@@]2(C)C1=O)[C@@]34C    0.979
CC(=O)O[C@H]1C[C@@H](OC(C)=O)C(C)(C)C2CC(=O)[C@]3(C)C(CC[C@@]4(C)[C@H](C(=O)O)OC(=O)C5OC543)[C@]21C (some centres not stated)    1.01
CCN(CCO)CCCC(C)Nc1ccnc2cc(Cl)ccc12 (configuration not stated)    0.986

Inquiry: Fill in the recorded cell viability for this compound, with SW480 as test system: CC(C)(Oc1ccc(Cl)cc1)C(=O)O
Reply text: 1.03
